Numbers sourced from ChEMBL document CHEMBL1122101.

Entries and their measured Biodistribution follow.
# Tested on: Rattus norvegicus
# PROTOCOL_DETAILS: Evaluated for biodistribution in rat liver after 2 min of administration
# Assay type: ADME, organism-based
# CONDITIONS_USED: in vivo
Answer format: numeric, % implied, no suffix.

Use these answered entries as a reference point.
{"CHEM_SMILES": "CN(C)Cc1ccccc1I", "PROPERTY_MEASURED": "Biodistribution", "UNIT_SPEC": "%", "RESULT": 11.81}
{"CHEM_SMILES": "CN(C)Cc1ccc(I)c(CN(C)C)c1", "PROPERTY_MEASURED": "Biodistribution", "UNIT_SPEC": "%", "RESULT": 9.52}
{"CHEM_SMILES": "CC(C)NCc1ccc(I)c(CNC(C)C)c1", "PROPERTY_MEASURED": "Biodistribution", "UNIT_SPEC": "%", "RESULT": 10.22}

# get_value(readout='Biodistribution', item= `Ic1ccc(CN2CCCCC2)cc1CN1CCCCC1` )
12.5
